Reported composite z-score by item:
System: Fibrinogen (Alexa647-labelled)
Assay: fibrinogen binders on compound microarrays, profiling panel, artefact control for SMM control-protein annotation, biochemical, small-molecule microarray, 635/667 nm fluorescence (AID 1131);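 note: z-score merges 667 nm fluorescence with per-spot signal-to-noise over triplicate slides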
Settings: fibrinogen-A647 binding fluorescence, higher = more signal
measureName: composite z-score

INSERT INTO measurements (smilesdata, datavalue) VALUES
  ('CCCN1C(=O)[C@]2(CCS(=O)(=O)c3ccccc3)N=C(c3ccc(OCCCO)cc3)O[C@@H]2c2ccccc21', 0.967),
  ('COCCOC(=O)N1C(=O)[C@@]2(c3cc(C#CCCO)ccc31)[C@H](C(=O)Nc1nc3ccccc3s1)[C@H]1C(=O)O[C@H](c3ccccc3)[C@H](c3ccccc3)N1[C@@H]2c1ccc(OCCO)cc1', 0.944),
  ('CN(C)CCCCCCNC(=O)[C@@H]1C[C@@H]2C(=O)N[C@@H](CCCCN)C(=O)N2[C@@H]1c1cccc(OCCO)c1', 1.01);
